- Tested on: T-47D breast
- test_description: NCI-60 one-dose screen, 48 h (100 = growth as untreated, 0 = no growth, -100 = all killed)
- assay_context: 10 µM
Compounds without any hit were thinned out: in the full panel of roughly 83,000, 20% have a hit.
Please mark class 1 if the recorded growth is equal to or greater than 80%, and class 0 if it falls below.

compound=O=C(O)CN1C(=O)C=CC1=O discrete_label="class 1"
compound=Fc1cc(-c2ncc(-c3cc(F)c(F)c(F)c3)c(NC3CCCCCC3)n2)cc(F)c1F discrete_label="class 1"
compound=COc1ccc(Cn2cc3c(c2-c2ccccc2)CC(C)(C)c2cnoc2-3)cc1 discrete_label="class 0"
compound=C#CCn1c(-c2cccc(OCCCCl)c2)nc2c1c(=O)n(C)c(=O)n2C discrete_label="class 0"
compound=CS(=O)(=O)Nc1ccc(OCc2nnc(-c3ccc(Cl)cc3)o2)c(F)c1 discrete_label="class 0"
compound=C[C@H](NC(=O)[C@@H]1CSSC[C@@H](NC(=O)Cc2nc3ccccc3cc2O)C(=O)NCC(=O)N1C)c1ccccc1 discrete_label="class 0"
compound="CCC(OC(=O)CC(C)C)c1ccccc1 (centres undefined)" discrete_label="class 1"

###

- System: SK-MEL-5 melanoma
- test_description: NCI-60 one-dose screen, 48 h (100 = growth as untreated, 0 = no growth, -100 = all killed)
- assay_context: 10 µM
- Description: Growth inhibition of the SK-MEL-5 human tumor cell line is measured as a screen for anti-cancer activity. Cells are grown in 96 well plates and exposed to the test compound for 48 hours. Compounds are tested at a single concentration, which is 10^-5 M for most compounds. The reported endpoint is percent growth (GI% or GIPRCNT), where numbers from 0 - 100% represent growth inhibition, and numbers from -100% - 0 represent cell death. For example, a value of 40 represents 60% growth inhibition. […]
This is part of a sample that, as a whole, favours compounds with a hit. Of some 83,000 tested, about 20% had one in any assay.
Cut-off 50% on growth, inclusive. At or above means True; below means False.

molecule=COc1ccc(-c2csc(-c3cc(Cl)cc(Cl)c3Cl)n2)cc1 target_or_test_system="SK-MEL-5 melanoma" discrete_label=False
molecule=CCN(CC)CCOC(=O)c1ccc(NC(=O)Nc2cccc(Cl)c2)cc1 target_or_test_system="SK-MEL-5 melanoma" discrete_label=True
molecule=CCCCn1c(=O)[nH]c2c(c1=O)C(c1ccc(Cl)cc1)c1c([nH]c(=O)n(CCCC)c1=O)N2 target_or_test_system="SK-MEL-5 melanoma" discrete_label=True
molecule=Cc1cc(C)c(/C=C2\C(=O)Nc3ccc(NC(=O)CCCCCCC(=O)NO)cc32)[nH]1 target_or_test_system="SK-MEL-5 melanoma" discrete_label=False
molecule=O=C(Nc1ccc(Oc2ccc(Nc3nc4ccccc4s3)cc2)cc1)Nc1ccc(Cl)c(Cl)c1 target_or_test_system="SK-MEL-5 melanoma" discrete_label=False
molecule="COc1ccc2oc(=O)cc(C3c4ccc([nH]4)C(c4cc(=O)oc5ccc(OC)cc45)c4ccc([nH]4)C(c4cc(=O)oc5ccc(OC)cc45)c4ccc([nH]4)C(c4cc(=O)oc5ccc(OC)cc45)c4ccc3[nH]4)c2c1 (centres undefined)" target_or_test_system="SK-MEL-5 melanoma" discrete_label=False
molecule=C=CCN1C(=O)/C(=C\c2ccc3c(c2)CCC3)SC1=S target_or_test_system="SK-MEL-5 melanoma" discrete_label=True
molecule=O=C(COCc1c(-c2ccccc2)no[n+]1[O-])Nc1nc(-c2ccc(Cl)cc2)cs1 target_or_test_system="SK-MEL-5 melanoma" discrete_label=True
molecule=CCOc1nc(-c2ccccc2)cc2c(O)c(C(=O)N/N=C/c3ccc(OC)cc3)[nH]c(=O)c12 target_or_test_system="SK-MEL-5 melanoma" discrete_label=True
molecule=COc1ccc(C(=O)c2sc3nc(-c4cccs4)ccc3c2N)cc1OC target_or_test_system="SK-MEL-5 melanoma" discrete_label=False
molecule=COCc1cc2c(cc1Br)OCO2 target_or_test_system="SK-MEL-5 melanoma" discrete_label=True
molecule=O=C(NC1CCCC1)c1ccc(N2CCC(NCc3cccc(C(F)(F)F)c3)CC2)cc1 target_or_test_system="SK-MEL-5 melanoma" discrete_label=True
molecule=Cc1cc(C)c2c(Nc3ncnc4c3sc3nc(C)cc(C)c34)n[nH]c2n1 target_or_test_system="SK-MEL-5 melanoma" discrete_label=True
molecule=Fc1ccc(Nc2ccnc(N3CCN(c4ccnc5cc(Cl)ccc45)CC3)n2)cc1 target_or_test_system="SK-MEL-5 melanoma" discrete_label=False
molecule=COc1ccc(CSc2nc3cc(OC)c(OC)cc3c(=O)n2-c2ccc(OC)cc2OC)cc1 target_or_test_system="SK-MEL-5 melanoma" discrete_label=True
molecule=Cc1ccc(-c2cc(C(=O)Nc3ccc(S(=O)(=O)N4CCCCC4)cc3)[nH]n2)c(O)c1 target_or_test_system="SK-MEL-5 melanoma" discrete_label=False
molecule=CCN(CC)c1ccc(/C=C/C2=[N+](C)c3ccccc3C2(C)C)c(C)c1 target_or_test_system="SK-MEL-5 melanoma" discrete_label=False
molecule=Nc1ccccc1NC(=O)CCCCCCC(=O)Nc1ccc2c(c1)/C(=C/c1ccc[nH]1)C(=O)N2 target_or_test_system="SK-MEL-5 melanoma" discrete_label=True

###

- System: HOP-92 NSCLC
- test_description: NCI-60 one-dose screen, 48 h (100 = growth as untreated, 0 = no growth, -100 = all killed)
- assay_context: 10 µM
About 83,000 compounds went through this panel and 20% of them were active in at least one assay; those are over-represented in the sample as a whole. The source made the active and inactive calls. How the source made its calls: active means growth percent below 10; inactive means the rest.
result_type: growth

compound=CCCCCCCCCCCCc1ccc(C(=O)/C=C/C(=O)O)cc1 result="46.4% (inactive)"
compound=CCN(Cc1ccccc1)C1CCN(Cc2cc(Br)ccc2O)CC1 result="5.9% (active)"
compound=O=C(CCCC(=O)N/N=C/c1cc(Cl)ccc1O)N/N=C\c1cc(Cl)ccc1O result="24.4% (inactive)"
compound=C=CCc1cc(Nc2c3ccc(Cl)cc3nc3ccc(OC)cc23)cc(CN(CC)CC)c1O result="-20.5% (active)"
compound="CCCCCCCCCCSC(=N)N (tested in a mixture with another compound)" result="41.8% (inactive)"
compound=CC(C)c1[nH]nc2c(NCc3ccc(-c4ccccn4)cc3)nc(SCCN)nc12 result="-11.1% (active)"
compound="CC(C)=C1CCC(C)C/C1=N\\N=C(N)N (stereo unspecified)" result="85.8% (inactive)"
compound=COc1cc2c3c(cccc3c1)C(=O)N(CCN1CCCC1)C2=O result="-8.44% (active)"
compound=CCOC(=O)c1ccc(NC(=O)Nc2nncs2)cc1 result="58.2% (inactive)"
compound=Cc1ccc(C(=O)O)c(N)c1C result="98.8% (inactive)"
compound=Cc1ccc(S(=O)(=O)Oc2ccccc2-c2ccccc2)cc1 result="33% (inactive)"

###

- System: MCF7 breast
- test_description: NCI-60 one-dose screen, 48 h (100 = growth as untreated, 0 = no growth, -100 = all killed)
- assay_context: 10 µM
About 83,000 compounds went through this panel and 20% of them were active in at least one assay; those are over-represented in the sample as a whole.
result_type: growth (%)

compound=CCCCn1c(=O)[nH]c(N)c(C(c2ccc(Cl)cc2)c2c(N)[nH]c(=O)n(CCCC)c2=O)c1=O target_or_test_system="MCF7 breast" unit_tag=% numeric_result=21.1
compound=COc1ccc2nc(C)cc(Nc3ccc(Cl)cc3)c2c1 target_or_test_system="MCF7 breast" unit_tag=% numeric_result=89
compound=O=C(Nc1ccc(OCc2nnc(-c3ccccc3)o2)c(F)c1)Nc1ccc(Cl)c(Cl)c1 target_or_test_system="MCF7 breast" unit_tag=% numeric_result=57.7
compound=COc1ccc(-c2ccccc2)cc1C(=O)c1ccc(-c2ccccc2)cc1 target_or_test_system="MCF7 breast" unit_tag=% numeric_result=50.6
compound="O=[N+]([O-])C1CC2C=CC1C2 (stereo not given)" target_or_test_system="MCF7 breast" unit_tag=% numeric_result=92.1
compound="NC1CCC(Nc2nc(NCc3ccc(-c4ccccc4O)nc3)c3ncn(C4CCCC4)c3n2)CC1 (stereo not given)" target_or_test_system="MCF7 breast" unit_tag=% numeric_result=-62.4
compound="Nc1nc2c(ncn2C2OC3COP(=O)(O)OC4C(COP(=O)(O)OC2C3O)OC(n2cnc3c(N)ncnc32)C4O)c(=O)[nH]1 (stereo not given)" target_or_test_system="MCF7 breast" unit_tag=% numeric_result=109
compound=CC1(C)CC(=O)c2c(nc3ccc(Cl)cc3c2-c2ccccc2)C1 target_or_test_system="MCF7 breast" unit_tag=% numeric_result=86.3
compound=COC(=O)[C@]12CC[C@@H](C)[C@H](C)[C@@H]1C1=CC[C@@H]3[C@@]4(C)CC(=O)[C@H](O)[C@@](C)(CO)[C@@H]4C(=O)C[C@@]3(C)[C@]1(C)CC2 target_or_test_system="MCF7 breast" unit_tag=% numeric_result=-13.4
compound=COc1ccc(-c2[nH]ncc2/C=C/c2cc(C(F)(F)F)[nH]c(=O)n2)cc1 target_or_test_system="MCF7 breast" unit_tag=% numeric_result=91.2
compound=FC(F)(F)c1ccc(-c2cnc(Br)nc2NC2CCCCCC2)cc1 target_or_test_system="MCF7 breast" unit_tag=% numeric_result=27.1
compound="Cc1cc(C)c(C(=O)OC(C)CNC2CCCCC2)c(C)c1 (stereo not given)" target_or_test_system="MCF7 breast" unit_tag=% numeric_result=97.8
compound="Nc1nc2c(nnn2C2CC(O)C(CO)O2)c(=O)[nH]1 (stereo not given)" target_or_test_system="MCF7 breast" unit_tag=% numeric_result=37.4
compound="COc1ccc(-c2nsc3c2NC(=O)CC3c2ccc(Cl)cc2)cc1 (stereo not given)" target_or_test_system="MCF7 breast" unit_tag=% numeric_result=88.4
compound=Cc1ccc(S(=O)(=O)N2CCc3ccccc3CC2)cc1 target_or_test_system="MCF7 breast" unit_tag=% numeric_result=60.7
compound="CN(C)c1ccc2cc(-c3cc4c(oc3=O)-c3ccccc3OC4O)c(=O)oc2c1 (stereo not given)" target_or_test_system="MCF7 breast" unit_tag=% numeric_result=18.7
compound=CC(=O)Nc1nc(C)c(C(=O)N/N=C/c2cccn2C)s1 target_or_test_system="MCF7 breast" unit_tag=% numeric_result=87.5
compound=C#CCn1c(-c2cccc(OCCCCl)c2)nc2c1c(=O)n(C)c(=O)n2C target_or_test_system="MCF7 breast" unit_tag=% numeric_result=84.7
compound=O=C(NCCCl)c1cc(Cl)cc(Cl)c1 target_or_test_system="MCF7 breast" unit_tag=% numeric_result=96.2
compound=CCN1CCN(c2nc(NNC(=O)c3cccc(OC)c3)nc(N3CCN(C(c4ccccc4)c4ccccc4)CC3)n2)CC1 target_or_test_system="MCF7 breast" unit_tag=% numeric_result=12.8
